Data origin: patent US20240246969A1

System: CYP450
run_description: CYP450 inhibition
Type: in vitro ADME
reported_conditions: all isoforms except 2C9
property_label: CYP450

Per the record, CCOc1ccc2c(-c3ccc(C(=O)O)c(C4CCCC4)c3)ncnc2c1 has CYP450 of > 30 µM

* * *

run_description: PPB, human (h)
Type: in vitro ADME
reported_conditions: plasma, second value of (m, h)
property_label: fraction unbound
The answer should be a number; do not append a unit.

Per the record, CCOc1ccc2c(-c3ccc(C(=O)O)c(C4CCCC4)c3)ncnc2c1 [Example 5.1] has fraction unbound of 0.01

* * *

measured_target: CaMKK2 (Homo sapiens, UniProt Q96RR4)
Sequence (Q96RR4 whole entry): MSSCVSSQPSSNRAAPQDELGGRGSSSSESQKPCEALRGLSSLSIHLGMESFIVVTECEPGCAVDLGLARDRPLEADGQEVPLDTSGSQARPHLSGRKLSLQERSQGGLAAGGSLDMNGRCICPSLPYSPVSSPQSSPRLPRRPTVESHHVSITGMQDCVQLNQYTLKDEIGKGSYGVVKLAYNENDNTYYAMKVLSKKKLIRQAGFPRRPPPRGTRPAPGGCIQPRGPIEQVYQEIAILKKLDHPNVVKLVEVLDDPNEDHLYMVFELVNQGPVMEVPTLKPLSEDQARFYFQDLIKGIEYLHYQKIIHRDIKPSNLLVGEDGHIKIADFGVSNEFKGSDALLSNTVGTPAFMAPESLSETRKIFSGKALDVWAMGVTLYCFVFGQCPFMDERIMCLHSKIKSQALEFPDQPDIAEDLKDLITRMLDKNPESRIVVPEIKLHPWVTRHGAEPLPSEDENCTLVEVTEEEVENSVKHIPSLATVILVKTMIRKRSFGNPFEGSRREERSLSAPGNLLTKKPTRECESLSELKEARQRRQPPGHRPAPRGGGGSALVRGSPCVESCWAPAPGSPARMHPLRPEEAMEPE
run_description: CaMKK2 binding assay (LanthaScreen TR-FRET)
pIC50: −log10 of the molar value.
property_label: pIC50

Per the record, N#Cc1ccc(-n2ccc3ncc(-c4ccccc4)nc32)cc1C1CCCC1 [Example 22] has pIC50 of 5.00 to 6.00

Per the record, Cc1cc(C)cc(-c2cnc3ccn(-c4ccc(C(=O)O)c(NC5CCNCC5)c4)c3n2)c1 [Example 34] has pIC50 of > 7.00

Per the record, COc1cc(-n2cc3ncc(F)c(-c4ccc(C(=O)O)c(C5CCCC5)c4)c3n2)cc(C(F)(F)F)c1 [Example 3.13] has pIC50 of > 7.00

Per the record, O=C(O)c1ccc(-n2ccc3ncc(-c4ccccc4)nc32)cc1C1CCCC1 [Example 1] has pIC50 of > 7.00

Per the record, Cc1cc(Cl)cc(-n2cc3ncc(F)c(-c4ccc(C(=O)O)c(C5CCCC5)c4)c3n2)c1 [Example 3.7] has pIC50 of > 7.00

* * *

measured_target: CaMKK1 (Homo sapiens, UniProt Q8N5S9)
Sequence (Q8N5S9 whole entry, species assumed): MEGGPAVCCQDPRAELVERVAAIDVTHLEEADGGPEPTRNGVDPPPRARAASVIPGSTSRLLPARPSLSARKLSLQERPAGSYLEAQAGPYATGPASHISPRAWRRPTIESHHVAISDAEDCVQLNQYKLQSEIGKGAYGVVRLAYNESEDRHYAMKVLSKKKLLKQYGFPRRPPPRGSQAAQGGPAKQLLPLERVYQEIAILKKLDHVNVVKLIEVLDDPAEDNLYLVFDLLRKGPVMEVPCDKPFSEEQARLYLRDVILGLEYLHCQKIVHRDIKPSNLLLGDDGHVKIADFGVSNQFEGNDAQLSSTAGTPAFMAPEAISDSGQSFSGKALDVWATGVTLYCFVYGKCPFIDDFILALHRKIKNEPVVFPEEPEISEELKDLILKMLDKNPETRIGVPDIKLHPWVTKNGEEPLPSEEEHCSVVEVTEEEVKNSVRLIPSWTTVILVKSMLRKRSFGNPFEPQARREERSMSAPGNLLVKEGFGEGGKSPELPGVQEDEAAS
property_label: pIC50
pIC50 here is simply -log10 of the concentration when that concentration is written in mol/L.

Per the record, CCOc1ccc2c(-c3ccc(C(=O)O)c(C4CCCC4)c3)ccnc2c1 has pIC50 of 8.77

* * *

Test system: pAMPK in A427
run_description: A427 pAMPK MOA assay
Assay type: cell-based
reported_conditions: Homo sapiens, A-427
Kindly state EC50 for each of the entries shown.
Unit nM implied. Number only.

Per the record, CCOc1ccc2c(-c3ccc(C(=O)O)c(C4CCCC4)c3)ncnc2c1 has EC50 of 74

Per the record, CCOc1ccc2c(-c3ccc(C(=O)O)c(C4CCCC4)c3)ccnc2c1 has EC50 of 30

* * *

run_description: PK
reported_conditions: in vivo; read-out: PK % F
property_label: bioavailability (%)
Unit % implied. Number only.

Per the record, CCOc1ccc2c(-c3ccc(C(=O)O)c(C4CCCC4)c3)ncnc2c1 has bioavailability of 80

Per the record, CCOc1ccc2c(-c3ccc(C(=O)O)c(C4CCCC4)c3)ccnc2c1 has bioavailability of 58
